tested on: MDA-MB-231; assay: cells; assay type: functional, cell-based; conditions: Homo sapiens, MDA-MB-231, 48 h
Description: Cytotoxicity against human MDA-MB-231 cells assessed as inhibition of cell proliferation after 48 hrs by MTT assay
pIC50: −log10 of the molar value.
REPORTED METRIC: pIC50

# example entries with known answers
- CHEMICAL STRUCTURE: "O=C(CCCCCNC(=O)Cn1cnc2c(N3CCOCC3)nc(Nc3ccccc3)nc21)NO"
  ASSAY SYSTEM: "MDA-MB-231"
  REPORTED METRIC: "pIC50"
  ASSAY VALUE: 5.81
- CHEMICAL STRUCTURE: "O=C(CCCCNC(=O)Cn1cnc2c(Nc3ccccc3)nc(Nc3ccccc3)nc21)NO"
  ASSAY SYSTEM: "MDA-MB-231"
  REPORTED METRIC: "pIC50"
  ASSAY VALUE: 4.96

1 = O=C(CCCCCNC(=O)Cn1cnc2c(NCc3ccccc3)ncnc21)NO
2 = O=C(CCCCCNC(=O)Cn1cnc2c(Nc3ccccc3)nc(Nc3ccccc3)nc21)NO
Of 1 and 2 , which shows the smaller pIC50 value? Bench note: the answer is the label of the chosen record.
1

* * *

target: Histone deacetylase (HDAC1 and HDAC2) (Homo sapiens, UniProt Q13547+Q92769); test: Inhibition of HDAC1/HDAC2 isolated from human HeLa cells incubated for 30 mins by Color de Lys assay; format: cell-based
Sequence (Q13547 whole entry, looked up): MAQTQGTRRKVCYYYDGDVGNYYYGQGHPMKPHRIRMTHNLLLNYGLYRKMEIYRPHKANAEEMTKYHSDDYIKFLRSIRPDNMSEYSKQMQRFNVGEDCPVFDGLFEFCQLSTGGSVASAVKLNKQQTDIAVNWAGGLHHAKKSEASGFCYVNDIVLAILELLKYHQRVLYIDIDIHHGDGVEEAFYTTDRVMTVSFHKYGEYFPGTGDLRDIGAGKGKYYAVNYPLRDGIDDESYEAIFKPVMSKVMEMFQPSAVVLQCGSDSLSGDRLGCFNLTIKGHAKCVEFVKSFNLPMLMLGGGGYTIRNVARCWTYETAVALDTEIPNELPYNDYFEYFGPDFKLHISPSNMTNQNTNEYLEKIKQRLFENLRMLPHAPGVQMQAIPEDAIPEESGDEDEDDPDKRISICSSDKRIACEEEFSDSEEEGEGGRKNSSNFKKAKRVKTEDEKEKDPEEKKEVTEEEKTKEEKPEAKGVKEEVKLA
Sequence (Q92769 whole entry, looked up): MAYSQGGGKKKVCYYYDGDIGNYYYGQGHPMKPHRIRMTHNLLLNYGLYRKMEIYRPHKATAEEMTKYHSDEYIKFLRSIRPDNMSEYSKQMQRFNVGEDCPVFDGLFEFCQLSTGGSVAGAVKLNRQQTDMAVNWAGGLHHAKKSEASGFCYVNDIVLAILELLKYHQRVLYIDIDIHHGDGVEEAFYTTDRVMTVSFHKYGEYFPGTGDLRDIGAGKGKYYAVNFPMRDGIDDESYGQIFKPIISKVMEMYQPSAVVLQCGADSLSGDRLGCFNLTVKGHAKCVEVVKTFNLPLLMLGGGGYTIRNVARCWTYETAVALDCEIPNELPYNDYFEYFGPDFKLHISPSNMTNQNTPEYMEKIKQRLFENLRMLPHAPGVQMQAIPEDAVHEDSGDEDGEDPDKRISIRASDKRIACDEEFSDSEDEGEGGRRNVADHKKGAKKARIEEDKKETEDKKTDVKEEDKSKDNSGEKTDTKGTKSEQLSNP
REPORTED METRIC: IC50 (µM)

# example entries with known answers
- CHEMICAL STRUCTURE: "O=C(CCCCNC(=O)Cn1cnc2c(Nc3ccccc3)nc(Nc3ccccc3)nc21)NO"
  ASSAY SYSTEM: "Histone deacetylase (HDAC1 and HDAC2) (Homo sapiens, UniProt Q13547+Q92769)"
  ASSAY VALUE: 0.59
- CHEMICAL STRUCTURE: "Nc1nc(N2CCOCC2)c2ncn(CC(=O)NCCCCCC(=O)NO)c2n1"
  ASSAY SYSTEM: "Histone deacetylase (HDAC1 and HDAC2) (Homo sapiens, UniProt Q13547+Q92769)"
  ASSAY VALUE: 4.53

1 = O=C(CCCCCCNC(=O)Cn1cnc2c(Nc3ccccc3)ncnc21)NO
2 = O=C(CCCCCCNC(=O)Cn1cnc2c(Nc3ccccc3)nc(Nc3ccccc3)nc21)NO
When 1 and 2 are compared, which has the higher number for IC50? Bench note: the answer is the label of the chosen record.
1

* * *

test system: PC-3; experiment: cells; assay type: functional, cell-based; conditions: Homo sapiens, PC-3, 48 h
Description: Cytotoxicity against human PC3 cells assessed as inhibition of cell proliferation after 48 hrs by MTT assay
REPORTED METRIC: IC50 (µM)

1 = O=C(CCCCCNC(=O)Cn1cnc2c(Nc3ccccc3)nc(Nc3ccccc3)nc21)NO
2 = O=C(CCCCCNC(=O)Cn1cnc2c(N3CCOCC3)nc(Nc3ccccc3)nc21)NO
3 = O=C(CCCCCCNC(=O)Cn1cnc2c(Nc3ccccc3)nc(Nc3ccccc3)nc21)NO
Descending sort on IC50 required. Output spec: a listing of the labels in the requested order.
2, 3, 1
(2: 6.44 µM, 3: 4.26 µM, 1: 2.14 µM)

* * *

target: Histone deacetylase (HDAC1 and HDAC2) (Homo sapiens, UniProt Q13547+Q92769); details: HeLa, at 5 µM
Description: Inhibition of HDAC1/HDAC2 isolated from human HeLa cells at 5 umol/L incubated for 30 mins by Color de Lys assay
REPORTED METRIC: inhibition (%)

- CHEMICAL STRUCTURE: "O=C(CCCCNC(=O)Cn1cnc2c(Nc3ccccc3)ncnc21)NO"
  ASSAY SYSTEM: "Histone deacetylase (HDAC1 and HDAC2) (Homo sapiens, UniProt Q13547+Q92769)"
  MEASURE UNIT: "%"
  inhibition: 59
- CHEMICAL STRUCTURE: "O=C(CCCCCCNC(=O)Cn1cnc2c(Nc3ccccc3)nc(Nc3ccccc3)nc21)NO"
  ASSAY SYSTEM: "Histone deacetylase (HDAC1 and HDAC2) (Homo sapiens, UniProt Q13547+Q92769)"
  MEASURE UNIT: "%"
  inhibition: 95
- CHEMICAL STRUCTURE: "O=C(CCNC(=O)Cn1cnc2c(N3CCOCC3)nc(Nc3ccccc3)nc21)NO"
  ASSAY SYSTEM: "Histone deacetylase (HDAC1 and HDAC2) (Homo sapiens, UniProt Q13547+Q92769)"
  MEASURE UNIT: "%"
  inhibition: 56
- CHEMICAL STRUCTURE: "O=C(CCCCCNC(=O)Cn1cnc2c(N3CCOCC3)ncnc21)NO"
  ASSAY SYSTEM: "Histone deacetylase (HDAC1 and HDAC2) (Homo sapiens, UniProt Q13547+Q92769)"
  MEASURE UNIT: "%"
  inhibition: 49
- CHEMICAL STRUCTURE: "O=C(CCCCNC(=O)Cn1cnc2c(Nc3ccccc3)nc(Nc3ccccc3)nc21)NO"
  ASSAY SYSTEM: "Histone deacetylase (HDAC1 and HDAC2) (Homo sapiens, UniProt Q13547+Q92769)"
  MEASURE UNIT: "%"
  inhibition: 87
- CHEMICAL STRUCTURE: "O=C(CCCCCNC(=O)Cn1cnc2c(Nc3ccccc3)nc(Nc3ccccc3)nc21)NO"
  ASSAY SYSTEM: "Histone deacetylase (HDAC1 and HDAC2) (Homo sapiens, UniProt Q13547+Q92769)"
  MEASURE UNIT: "%"
  inhibition: 80
- CHEMICAL STRUCTURE: "O=C(CCCCCNC(=O)Cn1cnc2c(NCc3ccccc3)ncnc21)NO"
  ASSAY SYSTEM: "Histone deacetylase (HDAC1 and HDAC2) (Homo sapiens, UniProt Q13547+Q92769)"
  MEASURE UNIT: "%"
  inhibition: 70
- CHEMICAL STRUCTURE: "Nc1nc(N2CCOCC2)c2ncn(CC(=O)NCCCCCC(=O)NO)c2n1"
  ASSAY SYSTEM: "Histone deacetylase (HDAC1 and HDAC2) (Homo sapiens, UniProt Q13547+Q92769)"
  MEASURE UNIT: "%"
  inhibition: 53

A = O=C(CCCCCNC(=O)Cn1cnc2c(Nc3ccccc3)ncnc21)NO
B = O=C(CCCCCCNC(=O)Cn1cnc2c(Nc3ccccc3)ncnc21)NO
C = O=C(CNC(=O)Cn1cnc2c(NCc3ccccc3)ncnc21)NO
D = O=C(CCNC(=O)Cn1cnc2c(NCc3ccccc3)ncnc21)NO
E = O=C(Cc1ccc(NC(=O)Cn2cnc3c(N4CCOCC4)ncnc32)cc1)NO
I would appreciate it if you could sort these 5 compounds by inhibition, starting from the smallest number. Output spec: a listing of the labels in the requested order.
C, D, E, B, A

* * *

target: Histone deacetylase (HDAC1 and HDAC2) (Homo sapiens, UniProt Q13547+Q92769); settings: HeLa, at 5 µM
REPORTED METRIC: inhibition (%)

# example entries with known answers
- CHEMICAL STRUCTURE: "CNc1ncnc2c1ncn2CC(=O)NCC(=O)NO"
  ASSAY VALUE: 3
- CHEMICAL STRUCTURE: "CNc1ncnc2c1ncn2CC(=O)NCCCC(=O)NO"
  ASSAY VALUE: 6
- CHEMICAL STRUCTURE: "CNc1ncnc2c1ncn2CC(=O)NCCC(=O)NO"
  ASSAY VALUE: 10
- CHEMICAL STRUCTURE: "O=C(CCCNC(=O)Cn1cnc2c(NCc3ccccc3)ncnc21)NO"
  ASSAY VALUE: 11
- CHEMICAL STRUCTURE: "O=C(CCCNC(=O)Cn1cnc2c(N3CCOCC3)nc(Nc3ccccc3)nc21)NO"
  ASSAY VALUE: 69

1 = Nc1nc(N2CCOCC2)c2ncn(CC(=O)NCCC(=O)NO)c2n1
2 = Nc1nc(N2CCOCC2)c2ncn(CC(=O)NCCCC(=O)NO)c2n1
Of 1 and 2 , which shows the smaller inhibition value? Bench note: the answer is the label of the chosen record.
2

I = O=C(CCCCCNC(=O)Cn1cnc2c(N3CCOCC3)nc(Nc3ccccc3)nc21)NO
II = O=C(CCNC(=O)Cn1cnc2c(N3CCOCC3)ncnc21)NO
Of I and II , which shows the smaller inhibition value? Bench note: the answer is the label of the chosen record.
II

A = O=C(CCCNC(=O)Cn1cnc2c(N3CCOCC3)ncnc21)NO
B = Nc1nc(N2CCOCC2)c2ncn(CC(=O)Nc3ccc(CC(=O)NO)cc3)c2n1
Of A and B , which shows the smaller inhibition value? Bench note: the answer is the label of the chosen record.
B
(B: 0%, A: 15%)

* * *

biological target: Histone deacetylase (HDAC1 and HDAC2) (Homo sapiens, UniProt Q13547+Q92769); test: Inhibition of HDAC1/HDAC2 isolated from human HeLa cells incubated for 30 mins by Color de Lys assay; format: cell-based
REPORTED METRIC: IC50 (µmol/L)

1 = O=C(CCCCCNC(=O)Cn1cnc2c(N3CCOCC3)nc(Nc3ccccc3)nc21)NO
2 = O=C(CCCCNC(=O)Cn1cnc2c(Nc3ccccc3)ncnc21)NO
When 1 and 2 are compared, which has the higher number for IC50? Bench note: the answer is the label of the chosen record.
2

I = O=C(CCCCCNC(=O)Cn1cnc2c(NCc3ccccc3)ncnc21)NO
II = O=C(CCCCCNC(=O)Cn1cnc2c(Nc3ccccc3)nc(Nc3ccccc3)nc21)NO
When I and II are compared, which has the higher number for IC50? Bench note: the answer is the label of the chosen record.
I
